- Test system: A549-TUBA1B-RELA
- test protocol: lowest phenotypically active concentration; higher = less potent
- conditions used: treatment time: 24 h
reported endpoint: lowest phenotypically active concentration

Sample answers from the record:
structure as smiles: C=CC(=O)N1CCC[C@@H](n2nc(-c3cccc(C(=O)Nc4ccc(C(C)C)c(C)c4)c3)c3c(N)ncnc32)C1
reported: 1 µM
//
structure as smiles: C/C(=N/NC(=N)N)c1ccc(NC(=O)Nc2ccc(/C(C)=N/NC(=N)N)cc2)cc1
reported: 3 µM
//
structure as smiles: CC(=O)NCC(=O)N1[C@@H]2CC[C@H]1c1ccc(Nc3ncc(C(F)(F)F)c(NC4CCC4)n3)cc12
reported: ≤ 0.3 µM
//
structure as smiles: CC(=C/[C@@H](C)C(=O)c1ccc(N(C)C)cc1)/C=C/C(=O)NO
reported: ≤ 0.3 µM
//
structure as smiles: CN(C)CCCN1c2ccccc2Sc2ccc(C(F)(F)F)cc21
reported: 9 µM

Lab note: measured lowest phenotypically active concentration of CC(C)(C)Nc1nc(Nc2ccc(C(N)=O)cc2)cc(N)c1C#N was 3 µM

Lab note: measured lowest phenotypically active concentration of NC(=O)Nc1sc(-c2ccc(F)cc2)cc1C(N)=O was 3 µM

Lab note: measured lowest phenotypically active concentration of O=C(O)c1ccc(Nc2ncc3c(n2)-c2ccc(Cl)cc2C(c2c(F)cccc2F)=NC3)cc1 was ≤ 0.3 µM

Lab note: measured lowest phenotypically active concentration of C=C1CN(Cc2ccc(C(=O)Nc3ccccc3N)cc2)C(=O)c2ccccc21 was 1 µM

* * *

- System: HepG2-CANX-COX4
- test protocol: phenotypically active (imaging signature differs from DMSO and reproducible) at any of 0.3-9 uM (binary (1 = active, 0 = inactive)); higher = active
- conditions used: treatment time: 24 h
Structures can show the parent of a compound that is named as a salt.
Your response should consist of one outcome taken from yes (1) for active, no (0) for inactive

compound: COc1cc([C@@H]2c3cc4c(cc3[C@@H](O[C@@H]3O[C@@H]5CO[C@@H](c6cccs6)O[C@H]5[C@H](O)[C@H]3O)[C@H]3COC(=O)[C@H]23)OCO4)cc(OC)c1O [teniposide]
tested target: HepG2-CANX-COX4
cat: yes (1)

Query: recorded result category for c1ccc2c(c1)CN1CCCC1=N2 [Desoxypeganine Hydrochloride] in this test
no (0)

Query: recorded result category for CC1(C)CCC(C)(C)c2cc(C3(c4ccc(C(=O)O)cc4)OCCO3)ccc21 in this test
no (0)

Query: recorded result category for O=c1[nH]cnc2c1ncn2[C@H]1CC[C@@H](CO)O1 [Didanosine] in this test
no (0)

Query: recorded result category for CO/N=C/C1=CCCN(C)C1 [Milameline hydrochloride] in this test
no (0)

Query: recorded result category for CC[C@H](CO)Nc1nc(NCc2ccc(-c3ccccn3)cc2)c2ncn(C(C)C)c2n1 in this test
yes (1)

Query: recorded result category for Oc1cc(O)cc(/C=C/c2ccc(O)c(O)c2)c1 [Piceatannol] in this test
no (0)

Query: recorded result category for C[C@]12CCC(=O)C=C1CC[C@@H]1[C@@H]2[C@@H](O)C[C@@]2(C)[C@H]1CC[C@]2(O)C(=O)CO [hydrocortisone] in this test
no (0)

* * *

- Tested on: A549-TUBA1B-RELA
- test protocol: phenotypically active (imaging signature differs from DMSO and reproducible) at any of 0.3-9 uM (binary (1 = active, 0 = inactive)); higher = active
- conditions used: treatment time: 24 h
Your response should consist of one outcome taken from active, inactive

Consider the worked cases shown below.
compound: O=C(NCC1CCCCN1)c1cc(OCC(F)(F)F)ccc1OCC(F)(F)F (stereo not drawn) [flecainide]
cat: inactive
//
compound: Brc1c(Br)c(Br)c2[nH]nnc2c1Br
cat: inactive
//
compound: CC(=O)/N=c1/sc(S(N)(=O)=O)nn1C [methazolamide]
cat: inactive

Query: recorded result category for COc1ccc(C[C@@H]2c3cc(OC)c(OC)cc3CC[N@+]2(C)CCC(=O)OCCCCCOC(=O)CC[N@@+]2(C)CCc3cc(OC)c(OC)cc3[C@H]2Cc2ccc(OC)c(OC)c2)cc1OC [Cisatracurium besylate] in this test
inactive

Query: recorded result category for Fc1ccc(Cl)cc1-c1nc(Nc2ccncc2)c2nccnc2n1 in this test
inactive

Query: recorded result category for NC1=NCC2c3ccccc3Cc3ccccc3N12 (stereo not drawn) [epinastine] in this test
inactive

Query: recorded result category for COC1=C(O)C(=O)c2ccccc2C1=O [2-hydroxy-3-methoxy-naphtoquinone] in this test
inactive

* * *

- System: WPMY1-GM130-SQSTM1
- test protocol: phenotypically active (imaging signature differs from DMSO and reproducible) at any of 0.3-9 uM (binary (1 = active, 0 = inactive)); higher = active
- conditions used: treatment time: 24 h
Where a name gives a salt, the structure may show the parent alone.
Entries and their phenotypically active
Simply state the number, no unit and no words.

Sample answers from the record:
compound: COc1ccc(CNC(=O)Nc2ncc([N+](=O)[O-])s2)cc1
phenotypically active: 1
--
compound: CCC[C@H](N[C@@H](C)C(=O)N1[C@H](C(=O)O)C[C@@H]2CCCC[C@@H]21)C(=O)OCC
phenotypically active: 0
--
compound: CC(C)OC(=O)C(C)(C)Oc1ccc(C(=O)c2ccc(Cl)cc2)cc1 [Fenofibrate]
phenotypically active: 0
--
compound: COc1ccc(N2C(=O)CSC2c2cccc(Br)c2)c(OC)c1 (centres undefined)
phenotypically active: 1
--
compound: CNCCCN1c2ccccc2CCc2ccccc21
phenotypically active: 1

Lab note: measured phenotypically active of Cc1cccc(CN2CCN(C(c3ccccc3)c3ccc(Cl)cc3)CC2)c1 (centres undefined) [Meclizine dihydrochloride] was 0

Lab note: measured phenotypically active of C/C=C(/C(=C/C)c1ccc(O)cc1)c1ccc(O)cc1 was 0

Lab note: measured phenotypically active of O=C(NC(CO)C(O)c1ccc([N+](=O)[O-])cc1)C(Cl)Cl (centres undefined) was 0

Lab note: measured phenotypically active of CCCCC(=O)O[C@H]1CC[C@H]2[C@@H]3CCc4cc(O)ccc4[C@H]3CC[C@]12C [estradiol valerate] was 0

Lab note: measured phenotypically active of Nc1ncnc2c1c(-c1cnc3[nH]ccc3c1)nn2C1CCCC1 was 1

Lab note: measured phenotypically active of COc1ccc(CCN(C)CCCC(C#N)(c2ccc(OC)c(OC)c2)C(C)C)cc1OC (centres undefined) was 0

Lab note: measured phenotypically active of Cc1ccnn1-c1ccc(C(=O)N2CCN(S(=O)(=O)c3ccc(Cl)c(C(F)(F)F)c3)CC2)cc1 was 0

* * *

- Test system: A549-GM130-SQSTM1
- test protocol: phenotypically active (imaging signature differs from DMSO and reproducible) at any of 0.3-9 uM (binary (1 = active, 0 = inactive)); higher = active
- conditions used: treatment time: 24 h
Counter-ions that a name gives are not always drawn.
Entries and their phenotypically active

compound: C[C@H]1[C@H](C)CC[C@]2(C(=O)O[C@@H]3O[C@H](CO[C@@H]4O[C@H](CO)[C@@H](O[C@@H]5O[C@@H](C)[C@H](O)[C@@H](O)[C@H]5O)[C@H](O)[C@H]4O)[C@@H](O)[C@H](O)[C@H]3O)CC[C@]3(C)C(=CC[C@@H]4[C@@]5(C)C[C@@H](O)[C@H](O)[C@@](C)(CO)[C@@H]5CC[C@]43C)[C@H]12 [Asiaticoside]
tested target: A549-GM130-SQSTM1
phenotypically active: 0 (inactive)
--
compound: COc1cc(O)c2c(c1C1CCCN1)OC(c1ccc(O)cc1)CC2 (stereo unspecified) [Vochysine (4 dia/énantio)]
tested target: A549-GM130-SQSTM1
phenotypically active: 0 (inactive)
--
compound: COc1c(C)cnc(Cn2cnc3c(Cl)nc(N)nc32)c1C
tested target: A549-GM130-SQSTM1
phenotypically active: 1 (active)
--
compound: CO[C@@H]1[C@H](N(C)C(=O)c2ccccc2)C[C@H]2O[C@]1(C)n1c3ccccc3c3c4c(c5c6ccccc6n2c5c31)C(=O)NC4
tested target: A549-GM130-SQSTM1
phenotypically active: 1 (active)
--
compound: COC(=O)[C@@H]1[C@H]2C[C@H]3c4[nH]c5ccccc5c4CCN3C[C@@H]2CC[C@@H]1O [Yohimbine hydrochloride]
tested target: A549-GM130-SQSTM1
phenotypically active: 0 (inactive)

Now for the compound whose phenotypically active we want.
Lab note: measured phenotypically active of C[C@@H](N)[C@H]1CC[C@H](C(=O)Nc2ccncc2)CC1 was 1 (active)

* * *

Entries and their lowest phenotypically active concentration
- Tested on: HepG2-TP53BP1-CLTA
- test protocol: lowest phenotypically active concentration; higher = less potent
- conditions used: treatment time: 24 h
Counter-ions that a name gives are not always drawn.
Give the number; µM is assumed, so skip it.

compound: CC(C)(C)Nc1nc(Nc2ccc(C(N)=O)cc2)cc(N)c1C#N
uom: µM
reported: 3
//
compound: CC(C)CNc1nc(-c2cccc3ncccc23)cn2c(-c3ccc(C(=O)NC4CC4)cc3)cnc12
uom: µM
reported: 1

Lab note: measured lowest phenotypically active concentration of CN1C/C(=C/c2ccc(B(O)O)cc2)C(=O)/C(=C/c2ccc(B(O)O)cc2)C1 was 9

Lab note: measured lowest phenotypically active concentration of CN(C)C(=O)C(CCN1CCC(O)(c2ccc(Cl)cc2)CC1)(c1ccccc1)c1ccccc1 [loperamide] was 9

Lab note: measured lowest phenotypically active concentration of Cc1c(NC(=O)OC[C@@H]2COCCN2)cn2ncnc(Nc3ccc4c(cnn4Cc4cccc(F)c4)c3)c12 was 3

Lab note: measured lowest phenotypically active concentration of COC(=O)C1=CO[C@@H](C)[C@H]2CN3CCc4c([nH]c5ccccc45)[C@@H]3C[C@H]12 [Ajmalicine hydrochloride] was 9

Lab note: measured lowest phenotypically active concentration of CCN(CC)CCNc1ccc(CO)c2sc3ccccc3c(=O)c12 [hycanthone] was 9

Lab note: measured lowest phenotypically active concentration of CNC(=O)c1ccccc1Sc1ccc2c(/C=C/c3ccccn3)n[nH]c2c1 [Axitinib] was 3
